Experiment: yeast display, Sf9 membrane polyspecificity reagent, FACS + sequencing; frameworks hold sequencing errors

sequence data	polyreactivity (PSR sort gate)
HVQLVETGGGLVQAGGSLRLSCAASGSTFYIYAMGCYRPAPGKEREFVAAIDFSGSSTYADSVKGRFTISRDNAKNTVYLQMNSLKPEDTAVYYCSARWYLTGGWTWVSFSHDYWGQGTQVTVSS	low polyreactivity
QVQLVESGGGLVQAGGSLRLSCAASGFIFSNYAMGWYRQAPGKERELVAAISWSGGNTYYADSVKGRFTISRDNAKNTFYLQMNSLKPEDTAVYYCNRVKAYYRWFLPRYQYNYWGQGTQVTVSS	high polyreactivity
QVQLVESGGGLVQAGGSLRLSCAASGSIFDYNTMGWYRQAPGKEREFVAAISSSGGGTSYADSVKGRFTISRDNAKNTVYLQMNSLKPEDTAVYYCAALIKLTPYQRQYWKYRAYYYWGQGSQVTVSS	high polyreactivity
QVQLVESGGGLVQAGGSLRLSCAASGSTFNYYAMGWNRQAPVKERELVATISWSGDSTYADSVKGRFTISRDNAKNTVYLQMHSLKPEDTAVYYCATSGDWWCFRYDYWGQGTQVTVSS	low polyreactivity
QVQLVESGGGLVQAGGSRRLSCAGSGRIFHYYAMGWYRPAPGTERELVAAISRTGSTYYADSVKGRFTISRDNAINTVYLQMNSLKPEDTAVYYCAADYWPQSNRWVYFRYGYWGQGTQVTVSS	high polyreactivity
QVQLVESGGGLVQAGGRLRLICAASGSTFRANIMRWSRQAPGKERELVAAITSGGGSTYYADSVKGRFTISRDNAKNTVYLQMNSLKPEDTAVYYCAARIYHDIDTRSYYWGQGTQVTVSS	high polyreactivity
QVQLVESGGGIVQAGGSLRLSCAASGSIFGINAMGWNRQAPGKERELVAAITSRGGRTYYADSVKGRFTISRDNAKNTVYLQMNSLKPEDTAVYYCAAATPYLIRYYYWGQGTQVTVSS	high polyreactivity
QVQLVESGGGLVQAGGSLRLSCAASGRIFSHKAMGWYRQAPGKERELVAGISSGGGTTYADSVKGRFTISRDNAKNTVYLQMNSLKPEDTAVYYCNKQDQPVGRSGYPYGYDYWGQGTQVTVSS	low polyreactivity
QVQLVESGGGLVQAGGSLRLSCAASGFIFYTYAMGWYRQAPGKERELVAAISWRGGRTYYADSVKGRFTISRDNAKNTVYLQMNSLKPEDTAVYYCNAVTSSGEYDYWGQGTQVTVSS	high polyreactivity
QVQLVESGGGLVQAGGSLRLSCAASGGTFYVYAMGWYRQAPGKERELVAAISTSGGSTYYADSVKGRFTISRDNAKNTVYLQMNSLKPEDTAVYYCAARRVSFSGHPRYGYWGQGTQVTVSS	high polyreactivity
QVQLVESGGGLVQAGGRLRLSCAASGFTFNRNAMGWYRQAPGKERELVAAISDSGDNTYYADSVKGRFTISRDNAKNTVYLQMNSLKPEDTAVYYCATSFYGFSYHWFDYWGQGTQVTVSS	low polyreactivity
QVQLAESGGGLVQAGGSLRLSCAASGSILFNMGWYRQAPGKERELVAAIRYGGGRTYYADSVKGRFTISRDNAKNTVYLQMNSLKPEDTAVYYCAAPYKRNAGFDYWGQGTQVTVSS	low polyreactivity
QVQLVESGGGLVQAGGSLRLSCAASGSTIDYYAMGWYRQAPGKERELVATISRGGSTNYADSVKGRFTISRDNAKNTVYLQMNSLKPEDTAVYYCAATYARYFYKYYYWGQGTQVTVSS	high polyreactivity
QVQLVESGGGLVQAGGSLRLSCAASRFIFSSYVMGRYRQAPGKERELVAASRSGGSTNYADSVKGRFTISRDNAKNTVYLQMNSLKPEDTAVYYCAARGRLGQGYYYWGQGTLVTVSS	low polyreactivity
QVQLVESGGGLVQAGGSLRLSCAASGSIFYRNAMGWYRQAPGKERELVAVITRRGGRTYYADSVKGRFTISRDNAKNTVDLQMNSLKPEDTAVYYCNADTANYADGLDYWGQGTQVTVSS	low polyreactivity
QVQLVESGGGLVQAGGSLRLSCAASGRTFTPYAKGWYRQAPGKERELVATISSGTSTNYADSVKGRFTISLDNAKYTVYLQMNSLKPEDTAVYYCAADGYTYKFDYWGQGSQVTVSS	low polyreactivity
QVQLVESGGGLVQAGGSLRLSCAASGRTFGFNAKGRYRQAPGTERELVAAISGSGGRPYYADSVKWRFTISRDNAKNTDYLQMNSLKPEDSAVYYCAAGARRGGSGYWGQGTQVTVSS	high polyreactivity
QVQLVESGGGLVQAGGSLRLSCAASGVIFYRYAMGWYRQAPGKERELVAAITRSGGTTYYADSVKGRFTISRDNAKNTVYLQMNSLKPEDTAVYYCAARVTPGRNGGGYWGQGTQVTVSS	high polyreactivity
QVQLVESGGGLVQAGGSLRLSCAASGVIFYDYAMGWYRQAPGKERELVAAISSGGSTNYADSVKGRFTISRDNAKNTVYLQMNSLKPEDTAVYYCAADDRSYATWKRDYDYWGQGTQVTVSS	low polyreactivity
QVQLVESGGGLVQAGGSLRLSCAASGYTFPSNAMGWYRQAPGKERELVAAISSGGRTNYADSVKGRFTISRDNAKNTVYLQMNSLTPEDTAVYYCNADGGPGYPRAYDYWGQGTQVTGSS	low polyreactivity
QVQLVESGGGLVQAGGSLRLSCAASGRTFYDNTMGWYRQAPGKERELVAAINWSGTRTYYADSVKGRFTISRDNAKNTVYLQMNSLKPEDTAVYYCAADGPFRRTYGYWGQGTQVTVSS	low polyreactivity
